- ASSAYED SYSTEM: UniProt P23977
- Sequence (P23977 whole entry): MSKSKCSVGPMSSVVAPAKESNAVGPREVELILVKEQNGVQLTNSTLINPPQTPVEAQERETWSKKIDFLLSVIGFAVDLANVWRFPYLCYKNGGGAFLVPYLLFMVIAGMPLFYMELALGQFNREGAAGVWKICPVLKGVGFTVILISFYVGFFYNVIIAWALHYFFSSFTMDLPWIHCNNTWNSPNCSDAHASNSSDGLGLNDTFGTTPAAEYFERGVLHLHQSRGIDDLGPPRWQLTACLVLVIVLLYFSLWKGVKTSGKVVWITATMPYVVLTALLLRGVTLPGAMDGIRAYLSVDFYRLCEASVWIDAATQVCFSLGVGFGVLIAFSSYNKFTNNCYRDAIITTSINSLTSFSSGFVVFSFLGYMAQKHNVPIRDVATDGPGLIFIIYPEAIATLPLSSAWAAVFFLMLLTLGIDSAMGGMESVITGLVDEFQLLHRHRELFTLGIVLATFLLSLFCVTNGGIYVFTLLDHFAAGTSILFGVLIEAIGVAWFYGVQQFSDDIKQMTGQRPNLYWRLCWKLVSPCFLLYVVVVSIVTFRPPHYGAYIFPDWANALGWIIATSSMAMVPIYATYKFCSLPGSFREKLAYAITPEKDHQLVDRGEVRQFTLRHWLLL
- METHOD DESCRIPTION: Inhibition of [3H]5-HT uptake at DA transporter in Wistar rat synaptosomes
MEASURED METRIC: IC50 (µM)

Use these answered entries as a reference point.
Request: Please provide the recorded IC50 for "CCN(CC)C(=O)[C@@]1(c2ccc(Cl)c(Cl)c2)C[C@H]1CN" , tested on UniProt P23977.
Response: 1.7

Request: Similarly, "CCN(CC)C(=O)[C@]1(c2ccc3ccccc3c2)C[C@@H]1CN" ?
Response: 0.14

Request: Another molecule: "CCN(CC)C(=O)[C@@]1(c2cccc(Cl)c2)C[C@H]1CN"
Response: 9

Request: Note, next up: "CCN(CC)C(=O)[C@@]1(c2cccc3ccccc23)C[C@H]1CN"
Response: 10

Request: Same for "CCN(CC)C(=O)[C@]1(c2ccc(Cl)c(Cl)c2)C[C@@H]1CN"
Response: 0.54

a. CCN(CC)C(=O)[C@]1(c2cccc3ccccc23)C[C@@H]1CN
b. CCN(CC)C(=O)[C@]1(c2ccc(Cl)cc2)C[C@@H]1CN
Request: Higher IC50: a or b ? Reply briefly: the label of your chosen item.
Response: a

P. CCN(CC)C(=O)[C@]1(c2ccc(F)cc2)C[C@@H]1CN
Q. CCN(CC)C(=O)[C@@]1(c2ccc3ccccc3c2)C[C@H]1CN
Request: Lab notebook, comparison: P versus Q , higher IC50 goes to which? Kindly give the label for the entry you pick.
Response: P
(P: 10 µM, Q: 1.4 µM)

* * *

- ASSAYED SYSTEM: Norepinephrine transporter (Rattus norvegicus, UniProt Q9WTR4)
- Sequence (Q9WTR4 whole entry): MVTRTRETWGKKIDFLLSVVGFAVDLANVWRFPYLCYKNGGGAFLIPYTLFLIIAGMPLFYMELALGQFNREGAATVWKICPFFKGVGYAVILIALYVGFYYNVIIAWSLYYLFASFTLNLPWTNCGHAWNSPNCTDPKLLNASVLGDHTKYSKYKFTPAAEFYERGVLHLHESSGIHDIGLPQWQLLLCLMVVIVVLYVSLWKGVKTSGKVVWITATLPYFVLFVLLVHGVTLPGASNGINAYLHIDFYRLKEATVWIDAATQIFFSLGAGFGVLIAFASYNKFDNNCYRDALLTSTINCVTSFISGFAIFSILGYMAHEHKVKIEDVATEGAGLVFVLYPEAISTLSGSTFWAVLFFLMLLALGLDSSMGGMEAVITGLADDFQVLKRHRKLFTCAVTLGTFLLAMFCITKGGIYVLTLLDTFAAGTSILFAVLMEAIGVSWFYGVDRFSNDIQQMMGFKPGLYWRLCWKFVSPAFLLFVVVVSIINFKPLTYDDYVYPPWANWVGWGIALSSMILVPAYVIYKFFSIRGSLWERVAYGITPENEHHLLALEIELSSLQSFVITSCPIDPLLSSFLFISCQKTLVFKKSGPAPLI
- METHOD DESCRIPTION: Inhibition of [3H]5-HT uptake at NE transporter in Wistar rat synaptosomes
pIC50: −log10 of the molar value.
MEASURED METRIC: pIC50

P. CCN(CC)C(=O)[C@]1(c2ccc(Cl)c(Cl)c2)C[C@@H]1CN
Q. CCN(CC)C(=O)[C@]1(c2cccc(Cl)c2)C[C@@H]1CN
R. CCN(CC)C(=O)[C@@]1(c2ccc(F)cc2)C[C@H]1CN
S. CCN(CC)C(=O)[C@]1(c2cccc3ccccc23)C[C@@H]1CN
Request: Lab note: rank above entries, pIC50 ascending. # the answer lists labels in the order requested
Response: S, R, Q, P
